System: K-562 leukemia
Protocol Summary: NCI-60 one-dose screen, 48 h
Cond: 10 µM unless noted
This is part of a sample that, as a whole, favours compounds with a hit. Of some 83,000 tested, about 20% had one in any assay. The source made the active and inactive calls. How the source made its calls: active means growth percent below 10; inactive means the rest.
Hi! Could you answer with just one of these? active, inactive

Examples from the recorded data:
Compound: CC(C)c1ccc(NC(=O)Nc2ccc(NC(=O)c3ccccc3N)cc2)cc1
Assigned Class: inactive

Compound: CC[C@]12C=CCN3CC[C@@]4(c5ccc(OC)cc5N(C)[C@H]4[C@@](O)(C(=O)OC)[C@@H]1OC(=O)CCCN1CCOCC1)[C@@H]32
Assigned Class: inactive

Compound: Cc1cc2oc(=O)cc(CP(=O)(O)O)c2cc1O
Assigned Class: inactive

Compound: COC(=O)/C(CCC=C(C)C)=C1\[C@@H](OC(C)=O)C[C@@]2(C)[C@H]1CC(=O)[C@H]1[C@@]3(C)CCC(N4CCCC4)[C@@H](C)[C@@H]3CC[C@@]12C (stereo partly drawn)
Assigned Class: inactive

Compound: CCOC(=O)c1c(C)c2c(n1C)CSc1cc(S(=O)(=O)c3ccccc3)c(=O)[nH]c1-2
Assigned Class: inactive

Problem: Tell me the recorded outcome of this test for COC(=O)c1ccc2c(c1)c1c(C)c3ccncc3c(C)c1n2C .
Result: active

Problem: Tell me the recorded outcome of this test for Cc1ncc(C(=O)Nc2ccc(CN3CCN(C)CC3)c(C(F)(F)F)c2)cc1C#Cc1cnc(N)c2cnccc12 .
Result: inactive

Problem: Tell me the recorded outcome of this test for Cc1ncc(C(=O)Nc2ccc(CN3CCN(C)CC3)c(C(F)(F)F)c2)cc1C#Cc1cnc(N)c2ccncc12 .
Result: active

====

We begin with a simple list: items and their reported growth.
Tested on: SNB-19 CNS
Protocol Summary: NCI-60 one-dose screen, 48 h (100 = growth as untreated, 0 = no growth, -100 = all killed)
Cond: 10 µM unless noted
Compounds without any hit were thinned out: in the full panel of roughly 83,000, 20% have a hit.
Expressed in %, but write only the number.

Solved cases (8 shown):
Compound: Cc1nn(-c2ccccc2)c(/N=C/N(C)C)c1/C=C/C(=O)c1ccc(Cl)cc1
growth [%]: 100
--
Compound: O=C1OCC2=C1C(c1cccc(C(F)(F)F)c1)c1cc3c(cc1N2CCO)OCO3 (centres undefined)
growth [%]: 30.1
--
Compound: COc1ccc(/C(C)=C(\c2ccc(OCCN3CCCCCC3)cc2)c2ccc(OC(=O)c3ccccc3)cc2)cc1
growth [%]: 62.8
--
Compound: Cc1c(N2CN3C[C@H](C)N4CN(c5c(C)n(C)n(-c6ccccc6)c5=O)CN5C[C@@H](C)N(C2)C3C54)c(=O)n(-c2ccccc2)n1C (some centres undefined)
growth [%]: 101
--
Compound: Cn1ccnc1C(=O)/C=C/c1ccc(C(=O)Nc2ccc(F)cc2)cc1
growth [%]: 24.4
--
Compound: CC(C)CCSc1nc(Nc2ccccc2)c(C#N)c(-c2ccccc2)n1
growth [%]: 19.3
--
Compound: CCN1C(=O)N(CC)C2C1NN=c1s/c(=C\c3ccccc3Br)c(=O)n12 (centres undefined)
growth [%]: 26.8
--
Compound: COc1ccc2cc(-c3cnc4nonc4n3)ccc2c1
growth [%]: 37.7

Problem: Using the record for CCn1cc(C(=O)N/N=C/c2ccc(Br)cc2)c(=O)c2cc(F)c(N3CCNC(C)C3)c(F)c21 (centres undefined) , state its measured growth.
Result: 54.5
